# assay.info: Water activity of humectant solutions (AquaLab CX-2)
# Format: physicochemical
# conditions: solution concentration 16%
Binary call on Water Activity of humectant solution: Criterion met from 0.9 upward, Criterion not met beneath that.

Worked cases, answers included:
O.O.O.O.O.O.[Cl-].[Cl-].[Mg+2]; Criterion not met
OCC(O)CO; Criterion met

Read the next record carefully.
Req: Please tell me: is the compound "O=C([O-])[O-].[K+].[K+]" at or over 0.9 in terms of Water Activity of humectant solution?
Resp: Criterion met

----------
# assay.info: Water activity of humectant solutions (AquaLab CX-2)
# Assay type: physicochemical
# conditions: solution concentration 20%
result.type: Water Activity of humectant solution
No unit in the answer, please; the number alone is enough.

Would you please look over these solved cases?
O.O.O.O.O.O.[Cl-].[Cl-].[Mg+2]; 0.768
[Cl-].[Na+] [NaCl, sodium chloride]; 0.842
OCC(O)CO; 0.944
O=C([O-])[O-].[K+].[K+]; 0.925

Proceeding to the next compound to report its Water Activity of humectant solution.
Req: Water Activity of humectant solution for [Cl-].[K+] [KCl, potassium chloride] ?
Resp: 0.891

Just for reference, patent US8304454B2 is where these values come from.
